Tested on: BFTC-909
experiment summary: cells
Assay type: functional, cell-based
assay setup: Homo sapiens
Description: SANGER: Inhibition of human BFTC-909 cell growth in a cell viability assay.
The entries below come with measured pIC50 values attached.
Bear in mind: pIC50 is minus log10 of a mol/L concentration; give just that figure.

Case CC(C)=CC[C@@H](O)C1=CC(=O)c2c(O)ccc(O)c2C1=O [SHIKONIN] , BFTC-909, pIC50 recorded as 5.44

Form field, pIC50 with BFTC-909, item CC[C@@]1(O)C(=O)OCc2c1cc1n(c2=O)Cc2cc3ccccc3nc2-1 [CAMPTOTHECIN] : 8.16

Item Cn1c(=O)n(-c2ccc(C(C)(C)C#N)cc2)c2c3cc(-c4cnc5ccccc5c4)ccc3ncc21 [DACTOLISIB] was tested on BFTC-909; the reported pIC50 is 8.43

API: the following record is the query input.
Reported pIC50 (BFTC-909) for entry CO[C@@]12[C@H](COC(N)=O)C3=C(C(=O)C(C)=C(N)C3=O)N1C[C@@H]1N[C@@H]12 [MITOMYCIN] is 7.07

###

Test system: EKVX;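 note: growth inhibition of human EKVX cells, read out with a cell viability assay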
experiment summary: cells
Type: functional, cell-based
assay setup: Homo sapiens
Description: SANGER: Inhibition of human EKVX cell growth in a cell viability assay.
pIC50: −log10 of the molar value.
Recorded pIC50, one value per entry.

These recorded examples may help you get a feel for the data.
Form: compound = CCNC(=O)c1noc(-c2cc(C(C)C)c(O)cc2O)c1-c1ccc(CN2CCOCC2)cc1 ; pIC50 = 6.98

The compound listed as C/C=C(/C)C(=O)O[C@H]1C(C)=C2[C@H]([C@@H]1OC(=O)CCCCCCC)[C@@](C)(OC(C)=O)C[C@H](OC(=O)CCC)[C@@]1(O)[C@H]2OC(=O)[C@@]1(C)O has a reported pIC50 of 6.60

The recorded pIC50 for entry Cc1nc(Nc2ncc(C(=O)Nc3c(C)cccc3Cl)s2)cc(N2CCN(CCO)CC2)n1 equals < 5.89

Further cases:
pIC50 measured on Cc1ccc(NC(=O)c2cccc(C(C)(C)C#N)c2)cc1Nc1ccc2ncn(C)c(=O)c2c1 = < 5.40

Kindly note the recorded pIC50 for Cc1[nH]c(/C=C2\C(=O)Nc3ccc(S(=O)(=O)Cc4c(Cl)cccc4Cl)cc32)c(C)c1C(=O)N1CCC[C@@H]1CN1CCCC1 , which is < 5.70

Record summary for CC[C@]1(O)C[C@@H]2CN(CCc3c([nH]c4ccccc34)[C@@](C(=O)OC)(c3cc4c(cc3OC)N(C)[C@H]3[C@@](O)(C(=O)OC)[C@H](OC(C)=O)[C@]5(CC)C=CCN6CC[C@]43[C@@H]65)C2)C1 : reported pIC50 = < 7.00

###

Tested on: SNG-M
experiment summary: cells
Assay type: functional, cell-based
assay setup: Homo sapiens
Description: SANGER: Inhibition of human SNG-M cell growth in a cell viability assay.
parameter measured: pIC50
Please note pIC50 is a logarithmic value: minus log10 of concentration in mol/L. Answer with that number alone.

Noted for CO[C@@]12[C@H](COC(N)=O)C3=C(C(=O)C(C)=C(N)C3=O)N1C[C@@H]1N[C@@H]12 : its pIC50 reads 6.87

###

Reported values of pIC50 for individual entries
Test system: NCI-H1793;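 note: cell growth inhibition, read out by a cell viability assay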
experiment summary: cells
Assay type: functional, cell-based
assay setup: Homo sapiens
Description: SANGER: Inhibition of human NCI-H1793 cell growth in a cell viability assay.
pIC50: −log10 of the molar value.

The compound listed as COc1cc(Nc2c(C#N)cnc3cc(OCCCN4CCN(C)CC4)c(OC)cc23)c(Cl)cc1Cl shows pIC50 equal to < 5.70

The compound listed as C/C=C(/C)C(=O)O[C@H]1C(C)=C2[C@H]([C@@H]1OC(=O)CCCCCCC)[C@@](C)(OC(C)=O)C[C@H](OC(=O)CCC)[C@@]1(O)[C@H]2OC(=O)[C@@]1(C)O has a reported pIC50 of < 6.29

# pIC50 (compound: Cn1cc(/C=C2\C(=O)Nc3cccnc32)c2ccccc21 ) is < 5.70

Now for the compound whose pIC50 we want.
Documented pIC50 of N#C/C(=C1/Nc2ccccc2S1)c1ccnc(NCCc2cccnc2)n1 : < 5.10

###

Tested on: THP-1;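 note: growth inhibition of THP-1 cells, read out via a cell viability assay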
experiment summary: cells
Assay type: functional, cell-based
assay setup: Homo sapiens
Description: SANGER: Inhibition of human THP-1 cell growth in a cell viability assay.
parameter measured: IC50

Solved cases below.
The compound listed as C/C=C(/C)C(=O)O[C@H]1C(C)=C2[C@H]([C@@H]1OC(=O)CCCCCCC)[C@@](C)(OC(C)=O)C[C@H](OC(=O)CCC)[C@@]1(O)[C@H]2OC(=O)[C@@]1(C)O [THAPSIGARGIN] has a reported IC50 of 11.4 nM

Measured IC50 of Cc1nc(Nc2ncc(C(=O)Nc3c(C)cccc3Cl)s2)cc(N2CCN(CCO)CC2)n1 [DASATINIB] : > 1280 nM

Let us examine a further case.
// sample COc1cc(C)c(Sc2cnc(NC(=O)c3ccc(CNC(C)C(C)(C)C)cc3)s2)cc1C(=O)N1CCN(C(C)=O)CC1 (stereo not drawn) , its IC50 was > 10200 nM

###

System: PSN1
experiment summary: cells
Type: functional, cell-based
assay setup: Homo sapiens
Description: SANGER: Inhibition of human PSN1 cell growth in a cell viability assay.
pIC50: −log10 of the molar value.
parameter measured: pIC50

Reference set (2 entries):
Noted for CC(O)(CS(=O)(=O)c1ccc(F)cc1)C(=O)Nc1ccc(C#N)c(C(F)(F)F)c1 (stereo not drawn) [BICALUTAMIDE] : its pIC50 reads < 5.99

Recorded result, C/C=C(/C)C(=O)O[C@H]1C(C)=C2[C@H]([C@@H]1OC(=O)CCCCCCC)[C@@](C)(OC(C)=O)C[C@H](OC(=O)CCC)[C@@]1(O)[C@H]2OC(=O)[C@@]1(C)O , pIC50: > 8.70

Next:
Record Cn1c(=O)n(-c2ccc(C(C)(C)C#N)cc2)c2c3cc(-c4cnc5ccccc5c4)ccc3ncc21 . Reported pIC50: 7.35

###

This section presents molecules with their documented pIC50 values.
Tested on: HT-1376
experiment summary: cells
Format: functional, cell-based
assay setup: Homo sapiens
Description: SANGER: Inhibition of human HT-1376 cell growth in a cell viability assay.
pIC50: −log10 of the molar value.

Sample answers from the record:
So, CCCS(=O)(=O)Nc1ccc(F)c(C(=O)c2c[nH]c3ncc(Cl)cc23)c1F ? Its pIC50 was < 5.00

The molecule listed as Cn1c(=O)n(-c2ccc(C(C)(C)C#N)cc2)c2c3cc(-c4cnc5ccccc5c4)ccc3ncc21 shows pIC50 equal to 6.41

pIC50 reported for this molecule C[C@]12O[C@H](C[C@]1(O)CO)n1c3ccccc3c3c4c(c5c6ccccc6n2c5c31)CNC4=O : < 5.70

// next entry
The measured pIC50 associated with C[C@]1(c2nc3c(C(N)=O)cccc3[nH]2)CCCN1 reads < 5.30

###

Test system: OS-RC-2;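 note: growth inhibition of human OS-RC-2 cells, measured by a cell viability assay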
experiment summary: cells
Type: functional, cell-based
assay setup: Homo sapiens
Description: SANGER: Inhibition of human OS-RC-2 cell growth in a cell viability assay.
parameter measured: pIC50
pIC50 here is simply -log10 of the concentration when that concentration is written in mol/L.

Here is how some molecules turned out for pIC50.
pIC50 measured on CC[C@@]1(O)C(=O)OCc2c1cc1n(c2=O)Cc2cc3ccccc3nc2-1 [CAMPTOTHECIN] = 8.00

Per the records, this molecule ( CO[C@@]12[C@H](COC(N)=O)C3=C(C(=O)C(C)=C(N)C3=O)N1C[C@@H]1N[C@@H]12 [MITOMYCIN] ) has pIC50 equal to 6.58

Note to self: pIC50 recorded for O=C(CCCCCCC(=O)Nc1ccccc1)NO [VORINOSTAT] was 5.73

The recorded pIC50 for Fc1cc(-c2cc[nH]/c(=N/c3ccc(-n4cnc(N5CCOCC5)n4)cc3)n2)cc(N2CCOCC2)c1 is 6.41

Lookup result for Cc1nc(Nc2ncc(C(=O)Nc3c(C)cccc3Cl)s2)cc(N2CCN(CCO)CC2)n1 [DASATINIB] ; measured pIC50: 7.69

New cases:
Record summary for C[C@]12O[C@H](C[C@]1(O)CO)n1c3ccccc3c3c4c(c5c6ccccc6n2c5c31)CNC4=O [LESTAURTINIB] : reported pIC50 = 6.25

###

System: HT-1080
experiment summary: cells
Type: functional, cell-based
assay setup: Homo sapiens
Description: SANGER: Inhibition of human HT-1080 cell growth in a cell viability assay.
parameter measured: IC50

Solved cases (4 shown):
Tested on HT-1080, the item CC[C@]1(O)C[C@@H]2CN(CCc3c([nH]c4ccccc34)[C@@](C(=O)OC)(c3cc4c(cc3OC)N(C)[C@H]3[C@@](O)(C(=O)OC)[C@H](OC(C)=O)[C@]5(CC)C=CCN6CC[C@]43[C@@H]65)C2)C1 showed IC50 equal to 0.00423 µM

Entry NC(=O)c1ncn([C@@H]2O[C@H](COP(=O)(O)O)[C@@H](O)[C@H]2O)c1N , HT-1080 data, IC50 value: > 2000 µM

Note to self: IC50 of C/C=C(/C)C(=O)O[C@H]1C(C)=C2[C@H]([C@@H]1OC(=O)CCCCCCC)[C@@](C)(OC(C)=O)C[C@H](OC(=O)CCC)[C@@]1(O)[C@H]2OC(=O)[C@@]1(C)O with HT-1080 was < 0.002 µM

Let me check: Cn1c(=O)n(-c2ccc(C(C)(C)C#N)cc2)c2c3cc(-c4cnc5ccccc5c4)ccc3ncc21 , system HT-1080, measured IC50 is 0.0219 µM

API: the following record is the query input.
Test item CC(=O)c1c(C)c2cnc(Nc3ccc(N4CCNCC4)cn3)nc2n(C2CCCC2)c1=O ; HT-1080; reported IC50 was 1.38 µM
